self-cleavage kobs at 640 uM GlcN6P values for the variants below.
B1: glmS ribozyme (parent)
chain: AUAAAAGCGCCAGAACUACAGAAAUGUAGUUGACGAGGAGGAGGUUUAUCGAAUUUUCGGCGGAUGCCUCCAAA

Variants of: B1
experiment notes: self-cleavage kobs at 640 uM GlcN6P; higher = faster cleavage; RNA array
measurement conditions: with glucosamine-6-phosphate
This sample holds only a part of the variants without activity.
Kindly answer with a numeric value in s⁻¹, unit omitted.

INSERT INTO measurements (mutation_descriptor, readout_number) VALUES
  ('G29U C58A', '5.13e-05'),
  ('A53U C71A', 0.00145),
  ('U46A C71A', 0.000259),
  ('G40C U45A', 0.000631),
  ('U31A C68U', 0.000477),
  ('A42G C58A', '9.53e-05'),
  ('U31G C67U', 0.00082),
  ('U54G C67U', 0.00333);

State the recorded self-cleavage kobs at 640 uM GlcN6P for this entry: G29C A52G 2.88e-05

State the recorded self-cleavage kobs at 640 uM GlcN6P for this entry: U31C U45A C67A 0.000203

State the recorded self-cleavage kobs at 640 uM GlcN6P for this entry: A14G G44A 0.000664
